read-out: Forkhead box O3 (FOXO3), FOXO3 (gene 2309); test: LTEA_HepaRG_FOXO3: Life Technologies and Expression Analysis (LTEA) Assay for Forkhead box O3 (FOXO3) using HepaRG (AID 2283459); conditions: mRNA level, 48 h; actives raise or lower the signal
Activity calls are given as the source filed them. The calls were made as follows: active = hit-call score of the fitted dose curve at least 0.9, where 1 is the maximum; inactive = score below 0.9.
Use one of these outcomes when replying: active, inactive

Use the examples below as a reference point.
| cpd_smiles | category_label |
| --- | --- |
| Cc1cn([C@H]2C[C@H](N=[N+]=[N-])[C@@H](CO)O2)c(=O)[nH]c1=O | inactive |
| CC(C)(C)c1csc(-c2cc3cc(OCc4ccccc4CC(=O)O)ccc3o2)n1 | inactive |
| CC(=O)N1CCN(c2ccc(OC[C@H]3CO[C@](Cn4ccnc4)(c4ccc(Cl)cc4Cl)O3)cc2)CC1 | active |
| COc1ccc2cc(S(=O)(=O)N[C@H](CC(=O)N[C@H](Cc3ccc(CN4[C@H](C)CCC[C@@H]4C)cc3)C(=O)N(C)C(C)C)c3ccc4c(c3)OCO4)ccc2c1 | inactive |
| O=C(O)c1ccccc1-n1cc(C(=O)O)c(=O)c2cc(Nc3c(F)cc(F)cc3Cl)c(Cl)cc21 | inactive |

Now look at this entry.
Ask | Per the assay record, what outcome was assigned to CCOC(=O)O[C@H](C)OC(=O)c1ccc2c(c1)cc(C(=O)NC1CCN(C(C)C)CC1)n2Cc1cc(-c2ccc(Cl)s2)on1 ?
Reply | inactive

The reported numbers originate from PubChem BioAssay (EPA / NIEHS).
